half-life listing for selected molecules.
# ASSAY: clinical
# TEST PARAMETERS: human, in vivo, iv, t1/2
METRIC: half-life (h)

>>> value_reported("CCc1nc(N)nc(N)c1-c1ccc(Cl)cc1")
140
>>> value_reported("Cc1ccc(-c2nc3ccc(C)cn3c2CC(=O)N(C)C)cc1")
1.7
>>> value_reported("CN(C)C(=O)Oc1cc(OC(=O)N(C)C)cc(C(O)CNC(C)(C)C)c1 (stereo not given)")
2.6
>>> value_reported("CCOC(=O)[C@]1(c2ccccc2)CCC=C[C@H]1NC")
4.4
>>> value_reported("C#C[C@]1(O)C=C[C@H]2[C@@H]3CCC4=CC(=O)CC[C@@H]4[C@H]3CC[C@@]21CC")
10

* * *

# ASSAY: clinical
# TEST PARAMETERS: human, in vivo, iv
Quick rule for you: MRT at 4 h or higher means True, lower means False.

>>> discrete_label("NCCCC[C@H](NC(=O)[C@@H](Cc1cc(Br)c(O)c(Br)c1)NC(=O)N1CCC(N2Cc3ccccc3NC2=O)CC1)C(=O)N1CCN(c2ccncc2)CC1")
"False"
>>> discrete_label("CC(C)=CCN1CC[C@]2(C)c3cc(O)ccc3C[C@H]1[C@H]2C [(+)-PENTAZOCINE]")
"False"
>>> discrete_label("O=C(O)[C@@H]1C[C@@H](C2CCCCC2)CN1C(=O)CP(=O)(O)CCCCc1ccccc1")
"True"
>>> discrete_label("CSc1ccc(C(=O)c2[nH]c(=O)[nH]c2C)cc1")
"False"
>>> discrete_label("Clc1cccc(Cl)c1N=C1NCCN1")
"True"
>>> discrete_label("O=C(O)Cn1c(=O)c(=O)[nH]c2cc([N+](=O)[O-])c(-n3ccnc3)cc21")
"False"
>>> discrete_label("C[C@]12C=CC(=O)C=C1CC[C@@H]1[C@@H]2C(=O)C[C@@]2(C)[C@H]1CC[C@]2(O)C(=O)CO")
"False"

* * *

clearance listing for selected molecules.
# ASSAY: clinical
# TEST PARAMETERS: human, in vivo, iv, CL
METRIC: clearance

>>> value_reported("CC(C)(C)NC(=O)[C@H]1CC[C@H]2[C@@H]3CC=C4C=C(C(=O)O)CC[C@]4(C)[C@H]3CC[C@]12C [EPRISTERIDE]")
"0.33 mL/min/kg"
>>> value_reported("C[C@H]1C[C@H]2[C@@H]3CCC4=CC(=O)C=C[C@]4(C)[C@@]3(F)[C@@H](O)C[C@]2(C)[C@@]1(O)C(=O)CO [BETAMETHASONE]")
"2.8 mL/min/kg"
>>> value_reported("CCCN(CCC)S(=O)(=O)c1ccc(C(=O)O)cc1 [PROBENECID]")
"0.25 mL/min/kg"
>>> value_reported("COc1cc2c(N)nc(N3CCN(C(=O)OCC(C)(C)O)CC3)nc2c(OC)c1OC [TRIMAZOSIN]")
"0.96 mL/min/kg"
>>> value_reported("CCc1cccc2cc(C(O)CNC(C)(C)C)oc12 (stereo not drawn) [BUFURALOL]")
"8.9 mL/min/kg"
>>> value_reported("Cc1ccsc1C(=CCCN1CCC[C@@H](C(=O)O)C1)c1sccc1C [TIAGABINE]")
"1.6 mL/min/kg"
>>> value_reported("NCCCCCC(=O)O [AMINOCAPROIC ACID]")
"2.5 mL/min/kg"
>>> value_reported("CC1=C(C(=O)O)N2C(=O)[C@@H](NC(=O)[C@H](N)C3=CCC=CC3)[C@H]2SC1 [CEPHRADINE]")
"3.3 mL/min/kg"

* * *

clearance listing for selected compounds.
# ASSAY: clinical
# TEST PARAMETERS: human, in vivo, iv, CL
METRIC: clearance (mL/min/kg)

>>> value_reported("CC(=O)[C@H]1CC[C@H]2[C@@H]3CC[C@@H]4C[C@H](O)CC[C@]4(C)[C@H]3CC[C@]12C")
22
>>> value_reported("CNCCCC12CCC(c3ccccc31)c1ccccc12")
14
>>> value_reported("NC(=O)CC[C@@H]1NC(=O)[C@H](Cc2ccccc2)NC(=O)[C@H](Cc2ccc(O)cc2)NC(=O)CCSSC[C@@H](C(=O)N2CCC[C@H]2C(=O)N[C@H](CCCN=C(N)N)C(=O)NCC(N)=O)NC(=O)[C@H](CC(N)=O)NC1=O")
1.4
>>> value_reported("CC(C)NCC(O)COc1cccc2ccccc12 (stereo not drawn)")
12
>>> value_reported("CN1C(=O)[C@H](O)C[C@H]1c1cccnc1")
1.8
>>> value_reported("CNC1(c2ccccc2Cl)CCCCC1=O (stereo not drawn)")
19
>>> value_reported("CCC(CC)COC(C(=O)OCCN(C)C)(c1ccccc1)c1ccccc1")
5.7
>>> value_reported("Nc1nc2c(ncn2CCC(CO)CO)c(=O)[nH]1")
8.4
>>> value_reported("Cc1onc(-c2c(Cl)cccc2Cl)c1C(=O)N[C@@H]1C(=O)N2[C@@H]1SC(C)(C)[C@@H]2C(=O)O")
2
>>> value_reported("NCCCC[C@H](NC(=O)[C@@H](Cc1cc(Br)c(O)c(Br)c1)NC(=O)N1CCC(N2Cc3ccccc3NC2=O)CC1)C(=O)N1CCN(c2ccncc2)CC1")
2.6
>>> value_reported("CCCCC/C=C\\CCC(=O)N[C@H]1[C@H](Oc2c3cc4cc2Oc2ccc(cc2Cl)[C@@H](O[C@@H]2O[C@H](CO)[C@@H](O)[C@H](O)[C@H]2NC(C)=O)[C@@H]2NC(=O)[C@H](NC(=O)[C@@H]4NC(=O)[C@H]4NC(=O)[C@@H](Cc5ccc(c(Cl)c5)O3)NC(=O)[C@H](N)c3ccc(O)c(c3)Oc3cc(O)cc4c3)c3ccc(O)c(c3)-c3c(O[C@H]4O[C@H](CO)[C@@H](O)[C@H](O)[C@@H]4O)cc(O)cc3[C@@H](C(=O)O)NC2=O)O[C@H](CO)[C@@H](O)[C@@H]1O")
0.2
>>> value_reported("OCCN1C[C@H](O)[C@@H](O)[C@H](O)[C@H]1CO")
1.7
>>> value_reported("C[C@@H](O)[C@H]1C(=O)N2C(C(=O)[O-])=C(SC3Cn4cnc[n+]4C3)[C@H](C)[C@H]12 (stereo partly drawn)")
2.5

* * *

# ASSAY: clinical
# TEST PARAMETERS: human, in vivo, iv, t1/2
half-life listing for selected molecules.
METRIC: half-life (h)

>>> value_reported("CCOC(=O)Nc1ccc(NCc2ccc(F)cc2)nc1N [FLUPIRTINE]")
8.5
>>> value_reported("CO/N=C(\\C(=O)N[C@@H]1C(=O)N2C(C(=O)[O-])=C(C[n+]3cccc4c3CCC4)CS[C@H]12)c1csc(N)n1 [CEFPIROME]")
1.7
>>> value_reported("CN(C)CCCN1c2ccccc2Sc2ccc(Cl)cc21 [CHLORPROMAZINE]")
11
>>> value_reported("O=c1[nH]cnc2c1ncn2[C@H]1CC[C@@H](CO)O1 [DIDANOSINE]")
1.4
>>> value_reported("CN(C)CCc1c[nH]c2ccc(Cn3cncn3)cc12 [RIZATRIPTAN]")
2.2
>>> value_reported("CNC1=Nc2ccc(Cl)cc2C(c2ccccc2)=[N+]([O-])C1 [CHLORDIAZEPOXIDE]")
8.3
>>> value_reported("CNCCCN1c2ccccc2CCc2ccccc21 [DESIPRAMINE]")
22
>>> value_reported("COc1ccc2[nH]c([S+]([O-])Cc3ncc(C)c(OC)c3C)nc2c1 (centres undefined) [OMEPRAZOLE]")
0.58
>>> value_reported("CO/N=C(\\C(=O)N[C@@H]1C(=O)N2C(C(=O)O)=C(COC(N)=O)CS[C@H]12)c1ccco1 [CEFUROXIME]")
1.1

* * *

# ASSAY: clinical
# TEST PARAMETERS: human, in vivo, iv, CL
METRIC: clearance (mL/min/kg)

>>> value_reported("CCCc1nc2c(C)cc(-c3nc4ccccc4n3C)cc2n1Cc1ccc(-c2ccccc2C(=O)O)cc1")
8.4
>>> value_reported("CN1CCN(C(=O)OC2c3nccnc3C(=O)N2c2ccc(Cl)cn2)CC1 (stereo not given)")
3.3
>>> value_reported("CCC(C)(C)NCC(O)COc1ccccc1C(=O)CCc1ccccc1 (stereo not given)")
11
>>> value_reported("CN(C)C(=O)Oc1ccc[n+](C)c1")
9.6
>>> value_reported("N=C(N)c1ccc(CNC(=O)[C@@H]2CCN2C(=O)[C@H](NCC(=O)O)C2CCCCC2)cc1")
1.9
>>> value_reported("CO[C@H]1/C=C/O[C@@]2(C)Oc3c(C)c(O)c4c(O)c(c(/C=N/N5CCN(C)CC5)c(O)c4c3C2=O)NC(=O)/C(C)=C\\C=C\\[C@H](C)[C@H](O)[C@@H](C)[C@@H](O)[C@@H](C)[C@H](OC(C)=O)[C@@H]1C")
3.5
>>> value_reported("CC1(C)S[C@@H]2[C@H](NC(=O)[C@H](C(=O)O)c3ccsc3)C(=O)N2[C@H]1C(=O)O")
1.8
>>> value_reported("Cc1ccnc2c1NC(=O)c1cccnc1N2C1CC1")
0.3
>>> value_reported("CC(C)=CCN1CC[C@]2(C)c3cc(O)ccc3C[C@H]1[C@H]2C [(+)-PENTAZOCINE]")
23
>>> value_reported("COc1nc(C)nc(Cl)c1N=C1NCCN1")
11
>>> value_reported("CN(Cc1cnc2nc(N)nc(N)c2n1)c1ccc(C(=O)N[C@@H](CCC(=O)O)C(=O)O)cc1 [METHOTREXATE]")
2.1
>>> value_reported("CCOC(=O)C1(c2ccccc2)CCN(C)CC1")
4.9
>>> value_reported("CCCC(CCC)C(=O)O")
0.16
>>> value_reported("C[C@H]1O[C@@H](O[C@H]2[C@@H](O)C[C@H](O[C@H]3[C@@H](O)C[C@H](O[C@H]4CC[C@@]5(C)[C@H](CC[C@@H]6[C@@H]5C[C@@H](O)[C@]5(C)[C@@H](C7=CC(=O)OC7)CC[C@]65O)C4)O[C@@H]3C)O[C@@H]2C)C[C@H](O)[C@@H]1O")
1.7
>>> value_reported("CN[C@H]1C(=O)N[C@@H]2Cc3ccc(cc3)Oc3cc4cc(c3O[C@@H]3O[C@H](C(=O)O)[C@@H](O)[C@H](O)[C@H]3NC(=O)CCCCCCCCC(C)C)Oc3ccc(cc3Cl)[C@@H](O)[C@@H]3NC(=O)[C@H](NC(=O)[C@@H]4NC(=O)[C@@H](NC2=O)c2cc(cc(O)c2Cl)Oc2cc1ccc2O)c1ccc(O)c(c1)-c1c(O[C@H]2O[C@H](CO)[C@@H](O)[C@H](O)[C@@H]2O)cc(O)cc1[C@@H](C(=O)NCCCN(C)C)NC3=O")
0.01
